- System: CEM cells HIV-1 protection, formazan growth assay
- ASSAY INFO: NCI AIDS Antiviral Assay
- TEST CONDITIONS: measured here: growth of uninfected CEM cells
- Procedure: The ability of compounds to protect human CEM cells from HIV-1 infection is measured as a screen for new compounds capable of inhibiting the HIV virus. Five concentrations of drug were tested on uninfected and infected cells and cell growth was measured using a soluble formazan assay. […] Compounds that provided at least 50% protection were retested. Compounds that provided at least 50% protection on retest were listed as moderately active. […]
Assign labels as follows, please: condition met for IC50 below 7 µM; condition not met for IC50 equal to or exceeding 7 µM.

Does this compound meet the criterion IC50 < 7 µM? O=C1Cc2ccccc2N1/N=C\c1ccc(O)cc1
condition not met

Does this compound meet the criterion IC50 < 7 µM? COC(=O)C(Cc1nc2ccccc2[nH]c1=O)C(=O)C(=O)Nc1cc(C(F)(F)F)ccc1Cl (stereo not given)
condition not met

Does this compound meet the criterion IC50 < 7 µM? O=C(O)c1ccc2c(c1)CC1(C2)Cc2ccccc2C1=O (stereo not given)
condition not met

Does this compound meet the criterion IC50 < 7 µM? Cc1nc2ccccc2c(C(=O)NO)[n+]1[O-]
condition not met

Does this compound meet the criterion IC50 < 7 µM? CCOC(C)C(=O)OC[C@@H](C(=O)OC1C[C@@H]2[C@@H]3O[C@@H]3[C@H](C1)[N+]2(C)C)c1ccccc1 (stereo not given in full)
condition not met

Does this compound meet the criterion IC50 < 7 µM? COc1cc(C2c3cc(O)c(OC)cc3C[C@H]3C(=O)OCC23)ccc1O (stereo not given in full)
condition not met

Does this compound meet the criterion IC50 < 7 µM? c1ccc(N=C2SC(c3ccccc3)(c3ccccc3)c3ccccc32)cc1
condition not met

Does this compound meet the criterion IC50 < 7 µM? CC(=O)OCC1OC(OCC2OC(N3C(=S)N[C@H]([C@@H](O)[C@H](O)[C@H](O)CO)[C@H]3O)C(OC(C)=O)C(OC(C)=O)C2OC(C)=O)C(OC(C)=O)C(OC(C)=O)C1OC(C)=O (stereo not given in full)
condition not met

Does this compound meet the criterion IC50 < 7 µM? COc1cc(C(C#N)NNc2nc(C)cc(=O)[nH]2)cc(OC)c1OC (stereo not given)
condition not met

Does this compound meet the criterion IC50 < 7 µM? CCCCNc1nc(N)nc(Nc2ccc(Br)cc2)c1N=O
condition not met

Does this compound meet the criterion IC50 < 7 µM? C=CC1=C(C)C2=NC1=CC1=NC(=CC3=C(C)C4=C(O)C(C(=O)OC)C(=C5NC(=C2)C(C)C5CCC(=O)OC/C=C(\C)CCCC(C)CCCC(C)CCCC(C)C)C4=N3)C(CC)=C1C (stereo not given)
condition met

Does this compound meet the criterion IC50 < 7 µM? NC(=O)Nc1ccc(S(=O)(=O)c2ccc(N)cc2)cc1
condition not met

Does this compound meet the criterion IC50 < 7 µM? O=C(NN1CCOC1=O)OCCCl
condition not met

Does this compound meet the criterion IC50 < 7 µM? CC(C)=Cc1cc(C(=O)Nc2ccc(Cl)c(Cl)c2)nc(N)n1
condition not met

Does this compound meet the criterion IC50 < 7 µM? Nn1c(SCc2nc3ccccc3[nH]2)nnc1-c1ccccc1
condition not met

Does this compound meet the criterion IC50 < 7 µM? CCOC(=O)C(=O)C(/C(=N/N(C)C)C(=O)Nc1ccc(C)cc1C)c1nc2ccccc2[nH]c1=O (stereo not given)
condition not met

Does this compound meet the criterion IC50 < 7 µM? CC(=O)Oc1cccc2c(/C=N/NC(N)=S)ncc(C)c12
condition met

Does this compound meet the criterion IC50 < 7 µM? CCc1ccccc1NC(=O)C(=O)C(C#N)c1ccccc1Cl (stereo not given)
condition not met

Does this compound meet the criterion IC50 < 7 µM? Nc1c2cc3ccc2nc2ccc(cc12)OCCOCCOCCOCCOCCOCCO3
condition not met

Does this compound meet the criterion IC50 < 7 µM? CCOC(=O)c1cn2c(n1)sc1cc(OC)ccc12
condition met
